- assay-system: FGFR2 (Homo sapiens, UniProt P21802)
- Construct: purchased DiscoveRx Corporation
- Sequence (P21802 22-821): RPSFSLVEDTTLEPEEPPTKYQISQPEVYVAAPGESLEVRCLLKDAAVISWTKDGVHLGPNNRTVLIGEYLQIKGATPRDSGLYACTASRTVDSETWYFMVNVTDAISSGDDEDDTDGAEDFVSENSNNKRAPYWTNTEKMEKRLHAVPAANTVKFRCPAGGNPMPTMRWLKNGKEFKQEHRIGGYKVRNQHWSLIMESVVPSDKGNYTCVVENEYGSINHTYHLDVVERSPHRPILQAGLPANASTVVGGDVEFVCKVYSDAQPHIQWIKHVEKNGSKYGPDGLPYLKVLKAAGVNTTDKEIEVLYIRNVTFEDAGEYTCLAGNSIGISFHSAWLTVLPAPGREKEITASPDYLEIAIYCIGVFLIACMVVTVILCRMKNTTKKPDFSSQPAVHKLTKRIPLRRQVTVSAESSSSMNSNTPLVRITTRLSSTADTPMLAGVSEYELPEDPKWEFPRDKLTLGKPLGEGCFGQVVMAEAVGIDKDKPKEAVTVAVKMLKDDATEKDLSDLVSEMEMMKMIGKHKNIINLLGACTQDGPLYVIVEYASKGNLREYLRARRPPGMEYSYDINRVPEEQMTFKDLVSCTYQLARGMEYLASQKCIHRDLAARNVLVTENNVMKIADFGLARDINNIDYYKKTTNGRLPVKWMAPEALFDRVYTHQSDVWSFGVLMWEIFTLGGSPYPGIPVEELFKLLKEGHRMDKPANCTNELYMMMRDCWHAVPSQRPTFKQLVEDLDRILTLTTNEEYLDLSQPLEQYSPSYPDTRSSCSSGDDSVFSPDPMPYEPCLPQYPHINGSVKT
- experiment: Enzyme binding assay (KINOMEscan) FGFR2
- test-parameters: pKd = -log Kd (M), read-out: FGFR2_pKd (converted)
Catalogue of Kd readings, one per entry.
Respond with the bare value in M.

compound=COc1cc(OC)c(F)c(N(Cc2nccn2S(=O)(=O)N(C)C)c2ccc3ncn(-c4ccncc4)c(=O)c3c2)c1F assay_system="FGFR2 (Homo sapiens, UniProt P21802)" quantity_name=Kd reported_result=3.16e-08
compound=COc1cc(OC)c(F)c(N(Cc2nccn2S(=O)(=O)N(C)C)c2ccc3ncn(-c4cccnc4)c(=O)c3c2)c1 assay_system="FGFR2 (Homo sapiens, UniProt P21802)" quantity_name=Kd reported_result=1e-07
compound=COc1cc(OC)cc(N(Cc2ncc[nH]2)c2ccc3ncn(C4CCOCC4)c(=O)c3c2)c1 assay_system="FGFR2 (Homo sapiens, UniProt P21802)" quantity_name=Kd reported_result=5.01e-08
compound=COc1cc(OC)c(F)c(N(Cc2nccn2S(=O)(=O)N(C)C)c2ccc3ncn(-c4cccnc4)c(=O)c3c2)c1F assay_system="FGFR2 (Homo sapiens, UniProt P21802)" quantity_name=Kd reported_result=1.58e-08
compound="COc1cc(OC)cc(N(CCCNC(C)C)c2ccc3ncn(C4CCOCC4)c(=O)c3c2)c1 [Compound 73′]" assay_system="FGFR2 (Homo sapiens, UniProt P21802)" quantity_name=Kd reported_result=6.31e-08

Reported FGFR2 (Homo sapiens, UniProt P21802) Kd for item `COc1cc(OC)c(F)c(N(CCNC(C)C)c2ccc3ncn(-c4cnn(C)c4)c(=O)c3c2)c1F` was 5.01e-09

Reported FGFR2 (Homo sapiens, UniProt P21802) Kd for item `CNCCN(c1ccc2ncn(C3CCNCC3)c(=O)c2c1)c1c(F)c(OC)cc(OC)c1F` was 3.98e-08

====

- assay-system: FGFR3 (h) (Homo sapiens, UniProt P22607)
- experiment: FGFR3 (enzymatic assay), TR-FRET
- Assay type: biochemical
Catalogue of IC50 readings, one per entry.
Respond with the bare value in nM.

Some compounds with recorded IC50:
structure_smiles_string=COc1cc(OC)c(F)c(N(CCO)c2ccc3ncn(-c4ccccc4)c(=O)c3c2)c1 reported_result=39.8
structure_smiles_string=CNCCN(c1ccc2ncn(-c3cnn(C)c3)c(=O)c2c1)c1c(F)c(OC)cc(OC)c1F reported_result=12.6

Now, please, on to the next compound.
compound `COc1cc(OC)c(F)c(N(CCO)c2ccc3ncn(-c4cnn(C)c4)c(=O)c3c2)c1F` , IC50 observed: 1.58

====

- assay-system: FGFR3 (Homo sapiens)
- Construct: purchased DiscoveRx Corporation
- Sequence (P22607 23-806): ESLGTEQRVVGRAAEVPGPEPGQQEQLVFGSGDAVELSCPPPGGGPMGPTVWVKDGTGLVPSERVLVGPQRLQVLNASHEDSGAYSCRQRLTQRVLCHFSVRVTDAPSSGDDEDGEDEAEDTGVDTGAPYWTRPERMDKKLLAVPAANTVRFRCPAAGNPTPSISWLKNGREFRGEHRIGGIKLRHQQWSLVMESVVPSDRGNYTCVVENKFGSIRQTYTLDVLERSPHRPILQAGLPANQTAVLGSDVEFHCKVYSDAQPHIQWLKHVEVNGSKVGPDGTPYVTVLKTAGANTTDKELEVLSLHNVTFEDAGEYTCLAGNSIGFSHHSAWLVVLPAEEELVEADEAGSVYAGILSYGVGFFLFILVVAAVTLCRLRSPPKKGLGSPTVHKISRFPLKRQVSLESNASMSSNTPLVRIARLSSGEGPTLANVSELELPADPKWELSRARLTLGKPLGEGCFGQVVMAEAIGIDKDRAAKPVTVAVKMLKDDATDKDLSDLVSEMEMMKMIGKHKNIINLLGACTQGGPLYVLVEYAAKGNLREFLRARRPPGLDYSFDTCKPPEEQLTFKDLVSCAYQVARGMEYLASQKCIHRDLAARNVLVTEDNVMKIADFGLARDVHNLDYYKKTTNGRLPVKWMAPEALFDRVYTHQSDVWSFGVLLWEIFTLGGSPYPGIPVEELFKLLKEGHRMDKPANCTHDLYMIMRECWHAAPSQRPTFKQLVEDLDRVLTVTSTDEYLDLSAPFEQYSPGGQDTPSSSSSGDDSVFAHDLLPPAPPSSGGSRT
- experiment: Enzyme binding assay (KINOMEscan) FGFR3
- test-parameters: pKd = -log Kd (M), read-out: FGFR3_pKd (converted)
Catalogue of Kd readings, one per entry.
Respond with the bare value in M.

structure_smiles_string=CNCCN(c1ccc2ncn(C3CCOCC3)c(=O)c2c1)c1cc(OC)cc(OC)c1F quantity_name=Kd units_of_measure=M reported_result=7.94e-08

molecule `COc1cc(OC)c(F)c(N(Cc2nccn2S(=O)(=O)N(C)C)c2ccc3ncn(-c4cccnc4)c(=O)c3c2)c1F` , Kd observed: 3.98e-08

====

- assay-system: Ba/F3-FGFR3-transfected cells (Homo sapiens, UniProt P22607, cells depend on it, form not given)
- Construct: BAF3-FGFR3 (MIN IL3 pIC50); other: minus IL3; 24 hours, Alamar Blue
- Sequence (P22607 whole entry, looked up, change not shown): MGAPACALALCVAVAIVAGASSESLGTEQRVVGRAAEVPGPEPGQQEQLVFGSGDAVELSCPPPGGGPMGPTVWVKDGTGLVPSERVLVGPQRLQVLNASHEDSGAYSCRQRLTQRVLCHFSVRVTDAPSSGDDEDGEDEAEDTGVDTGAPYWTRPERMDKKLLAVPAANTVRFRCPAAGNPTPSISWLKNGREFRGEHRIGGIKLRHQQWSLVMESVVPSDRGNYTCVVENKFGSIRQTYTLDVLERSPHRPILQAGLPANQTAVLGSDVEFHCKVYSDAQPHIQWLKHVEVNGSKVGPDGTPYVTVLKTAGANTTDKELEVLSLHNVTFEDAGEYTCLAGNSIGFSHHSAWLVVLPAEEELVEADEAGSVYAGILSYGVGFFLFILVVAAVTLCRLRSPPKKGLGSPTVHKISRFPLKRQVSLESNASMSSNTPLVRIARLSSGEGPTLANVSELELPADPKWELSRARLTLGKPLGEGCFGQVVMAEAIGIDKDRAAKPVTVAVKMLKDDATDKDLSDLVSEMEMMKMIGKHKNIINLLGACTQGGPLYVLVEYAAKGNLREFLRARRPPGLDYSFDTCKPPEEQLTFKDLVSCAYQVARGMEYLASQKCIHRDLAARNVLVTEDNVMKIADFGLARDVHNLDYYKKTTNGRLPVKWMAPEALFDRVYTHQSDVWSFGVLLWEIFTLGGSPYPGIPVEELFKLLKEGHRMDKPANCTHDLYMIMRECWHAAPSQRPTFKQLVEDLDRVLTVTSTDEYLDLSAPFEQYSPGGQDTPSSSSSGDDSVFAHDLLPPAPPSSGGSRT
- experiment: Ba/F3-FGFR3 (minus IL3 or plus IL3) cellular proliferation assay
- Format: cell-based
- test-parameters: 24 hours, Alamar Blue
Catalogue of BAF3-FGFR3 (MIN IL3 pIC50) readings, one per entry.
Give the figure only, with no unit attached.

Some compounds with recorded BAF3-FGFR3 (MIN IL3 pIC50):
structure_smiles_string=COc1cc(OC)c(F)c(N(Cc2ncc[nH]2)c2ccc3ncn(-c4cnn(C)c4)c(=O)c3c2)c1F reported_result=7.4
structure_smiles_string=COc1cc(OC)c(F)c(N(CCNC(C)C)c2ccc3ncn(-c4ccccc4)c(=O)c3c2)c1F reported_result=7.6
structure_smiles_string=COc1cc(OC)c(Cl)c(N(Cc2ncc[nH]2)c2ccc3ncn(-c4cnn(C)c4)c(=O)c3c2)c1Cl reported_result=5.9
structure_smiles_string=COc1cc(OC)c(Cl)c(N(CCO)c2ccc3ncn(-c4cnn(C)c4)c(=O)c3c2)c1Cl reported_result=6.3
structure_smiles_string=COc1cc(OC)cc(N(CCO)c2ccc3ncn(-c4cnn(C)c4)c(=O)c3c2)c1 reported_result=5.6

Now, please, on to the next compound.
compound `COc1cc(OC)c(F)c(N(Cc2ncc[nH]2)c2ccc3ncn(-c4ccccc4)c(=O)c3c2)c1F` , BAF3-FGFR3 (MIN IL3 pIC50) observed: 6.2
